Quick reference for relative viability among some molecules
test system: NCI-H647; test: relative viability (nuclei count vs DMSO), 5 days (fraction); higher = more cells survive; conditions: first compound 0.04 µM
test_readout: relative viability

O=C(O)c1ccc(-c2c[nH]c3ncc(-c4ccccc4)cc23)cc1C1CCCC1 + Cc1cc(Nc2cc(N3CCN(C)CC3)nc(Sc3ccc(NC(=O)C4CC4)cc3)n2)n[nH]1 [Tozasertib] (partner 0.1 µM) : 0.223
O=C(O)c1ccc(-c2c[nH]c3ncc(-c4ccccc4)cc23)cc1C1CCCC1 + C[C@@H](Oc1cc(-c2cnn(C3CCNCC3)c2)cnc1N)c1c(Cl)ccc(F)c1Cl [Crizotinib] (partner 1 µM) : 1.01
O=C(O)c1ccc(-c2c[nH]c3ncc(-c4ccccc4)cc23)cc1C1CCCC1 + O=C(c1cc(Cc2n[nH]c(=O)c3ccccc23)ccc1F)N1CCN(C(=O)C2CC2)CC1 [Olaparib] (partner 8 µM) : 0.5
O=C(O)c1ccc(-c2c[nH]c3ncc(-c4ccccc4)cc23)cc1C1CCCC1 + CC1(C)CCC(c2ccc(Cl)cc2)=C(CN2CCN(c3ccc(C(=O)NS(=O)(=O)c4ccc(N[C@H](CCN5CCOCC5)CSc5ccccc5)c(S(=O)(=O)C(F)(F)F)c4)cc3)CC2)C1 [Navitoclax] (partner 0.5 µM) : 1.1
O=C(O)c1ccc(-c2c[nH]c3ncc(-c4ccccc4)cc23)cc1C1CCCC1 + Cc1nc(NC(=O)N2CCC[C@H]2C(N)=O)sc1-c1ccnc(C(C)(C)C(F)(F)F)c1 [Alpelisib] (partner 2 µM) : 1.14

* * *

Quick reference for relative viability among some compounds
tested on: CAL-12T; test: relative viability (nuclei count vs DMSO), 5 days (fraction); higher = more cells survive; conditions: first compound 0.5 µM
test_readout: relative viability

CC1(C)CCC(c2ccc(Cl)cc2)=C(CN2CCN(c3ccc(C(=O)NS(=O)(=O)c4ccc(N[C@H](CCN5CCOCC5)CSc5ccccc5)c(S(=O)(=O)C(F)(F)F)c4)cc3)CC2)C1 [Navitoclax] + COc1cc2c(Oc3ccc(NC(=O)C4(C(=O)Nc5ccc(F)cc5)CC4)cc3F)ccnc2cc1OCCCN1CCOCC1 [Foretinib] (partner 0.25 µM) : 1.11
CC1(C)CCC(c2ccc(Cl)cc2)=C(CN2CCN(c3ccc(C(=O)NS(=O)(=O)c4ccc(N[C@H](CCN5CCOCC5)CSc5ccccc5)c(S(=O)(=O)C(F)(F)F)c4)cc3)CC2)C1 [Navitoclax] + N=C(N)NC(=N)NCCc1ccccc1 [Phenformin] (partner 250 µM) : 0.582
CC1(C)CCC(c2ccc(Cl)cc2)=C(CN2CCN(c3ccc(C(=O)NS(=O)(=O)c4ccc(N[C@H](CCN5CCOCC5)CSc5ccccc5)c(S(=O)(=O)C(F)(F)F)c4)cc3)CC2)C1 [Navitoclax] + CC(=O)Nc1cccc(-n2c(=O)n(C3CC3)c(=O)c3c(Nc4ccc(I)cc4F)n(C)c(=O)c(C)c32)c1 [Trametinib] (partner 0.02 µM) : 0.311
CC1(C)CCC(c2ccc(Cl)cc2)=C(CN2CCN(c3ccc(C(=O)NS(=O)(=O)c4ccc(N[C@H](CCN5CCOCC5)CSc5ccccc5)c(S(=O)(=O)C(F)(F)F)c4)cc3)CC2)C1 [Navitoclax] + Cc1nc(NC(=O)N2CCC[C@H]2C(N)=O)sc1-c1ccnc(C(C)(C)C(F)(F)F)c1 [Alpelisib] (partner 2 µM) : 1.11
CC1(C)CCC(c2ccc(Cl)cc2)=C(CN2CCN(c3ccc(C(=O)NS(=O)(=O)c4ccc(N[C@H](CCN5CCOCC5)CSc5ccccc5)c(S(=O)(=O)C(F)(F)F)c4)cc3)CC2)C1 [Navitoclax] + NC(=O)Nc1cc(-c2cccc(F)c2)sc1C(=O)N[C@H]1CCCNC1 [AZD7762] (partner 0.2 µM) : 0.541

* * *

test system: ChaGo-K-1; assay: relative viability (nuclei count vs DMSO), 5 days (fraction); higher = more cells survive; settings: first compound 0.253 µM
test_readout: relative viability

Oc1nc(-c2ccc(C(F)(F)F)cc2)nc2c1CSCC2 [XAV939] + CC(=O)Nc1cccc(-n2c(=O)n(C3CC3)c(=O)c3c(Nc4ccc(I)cc4F)n(C)c(=O)c(C)c32)c1 [Trametinib] (partner 0.02 µM) : 0.82
Oc1nc(-c2ccc(C(F)(F)F)cc2)nc2c1CSCC2 [XAV939] + CC(C)C[C@H](NC(=O)[C@H](Cc1ccccc1)NC(=O)c1cnccn1)B(O)O [Bortezomib] (partner 0.002 µM) : 0.848
C=C1C(=O)O[C@@H](CCCCCCCC)[C@@H]1C(=O)O [C-75] + C[C@@H](Oc1cc(-c2cnn(C3CCNCC3)c2)cnc1N)c1c(Cl)ccc(F)c1Cl [Crizotinib] (partner 1 µM) : 0.983

* * *

Quick reference for relative viability among some compounds
system: SK-LU-1; assay: relative viability (nuclei count vs DMSO), 5 days (fraction); higher = more cells survive; conditions: first compound 0.08 µM
test_readout: relative viability

C=C1C(=O)O[C@@H](CCCCCCCC)[C@@H]1C(=O)O [C-75] + CCNC(=O)c1noc(-c2cc(C(C)C)c(O)cc2O)c1-c1ccc(CN2CCOCC2)cc1 [Luminespib] (partner 0.01 µM) : 0.202
C=C1C(=O)O[C@@H](CCCCCCCC)[C@@H]1C(=O)O [C-75] + CC(=O)c1c(C)c2cnc(Nc3ccc(N4CCNCC4)cn3)nc2n(C2CCCC2)c1=O [Palbociclib] (partner 0.5 µM) : 0.384
Oc1nc(-c2ccc(C(F)(F)F)cc2)nc2c1CSCC2 [XAV939] + COc1cc2c(Oc3ccc(NC(=O)C4(C(=O)Nc5ccc(F)cc5)CC4)cc3F)ccnc2cc1OCCCN1CCOCC1 [Foretinib] (partner 0.25 µM) : 0.861

* * *

tested on: LCLC-103H; experiment: relative viability (nuclei count vs DMSO), 5 days (fraction); higher = more cells survive; details: first compound 0.01 µM
test_readout: relative viability

NC(=O)Nc1cc(-c2cccc(F)c2)sc1C(=O)N[C@H]1CCCNC1 [AZD7762] + O=C(CCCCCCC(=O)Nc1ccccc1)NO [Vorinostat] (partner 1 µM) : 0.857
NC(=O)Nc1cc(-c2cccc(F)c2)sc1C(=O)N[C@H]1CCCNC1 [AZD7762] + Cc1cc(Nc2cc(N3CCN(C)CC3)nc(Sc3ccc(NC(=O)C4CC4)cc3)n2)n[nH]1 [Tozasertib] (partner 0.1 µM) : 0.522
NC(=O)Nc1cc(-c2cccc(F)c2)sc1C(=O)N[C@H]1CCCNC1 [AZD7762] + Nc1ncn([C@H]2C[C@H](O)[C@@H](CO)O2)c(=O)n1 [Decitabine] (partner 2 µM) : 0.766

* * *

system: NCI-H358; assay: relative viability (nuclei count vs DMSO), 5 days (fraction); higher = more cells survive; conditions: first compound 0.005 µM
Quick reference for relative viability among some compounds
test_readout: relative viability

CC1(C)CCC(c2ccc(Cl)cc2)=C(CN2CCN(c3ccc(C(=O)NS(=O)(=O)c4ccc(N[C@H](CCN5CCOCC5)CSc5ccccc5)c(S(=O)(=O)C(F)(F)F)c4)cc3)CC2)C1 [Navitoclax] + Nc1nc2[nH]cc(CCc3ccc(C(=O)N[C@@H](CCC(=O)O)C(=O)O)cc3)c2c(=O)[nH]1 [Pemetrexed] (partner 0.2 µM) : 0.17
CC1(C)CCC(c2ccc(Cl)cc2)=C(CN2CCN(c3ccc(C(=O)NS(=O)(=O)c4ccc(N[C@H](CCN5CCOCC5)CSc5ccccc5)c(S(=O)(=O)C(F)(F)F)c4)cc3)CC2)C1 [Navitoclax] + COc1cc2c(Oc3ccc(NC(=O)C4(C(=O)Nc5ccc(F)cc5)CC4)cc3F)ccnc2cc1OCCCN1CCOCC1 [Foretinib] (partner 0.25 µM) : 0.743

* * *

tested on: HCC-78; assay: relative viability (nuclei count vs DMSO), 5 days (fraction); higher = more cells survive; conditions: first compound 2.53 µM
Mark true only for relative viability values smaller than 0.3; exact matches and larger values are false.

C=C1C(=O)O[C@@H](CCCCCCCC)[C@@H]1C(=O)O [C-75] + CS(=O)(=O)N1CCN(Cc2cc3nc(-c4cccc5[nH]ncc45)nc(N4CCOCC4)c3s2)CC1 [Pictilisib] (partner 1 µM) : true
C=C1C(=O)O[C@@H](CCCCCCCC)[C@@H]1C(=O)O [C-75] + CC(=O)c1c(C)c2cnc(Nc3ccc(N4CCNCC4)cn3)nc2n(C2CCCC2)c1=O [Palbociclib] (partner 0.5 µM) : false
Oc1nc(-c2ccc(C(F)(F)F)cc2)nc2c1CSCC2 [XAV939] + NC(=O)Nc1cc(-c2cccc(F)c2)sc1C(=O)N[C@H]1CCCNC1 [AZD7762] (partner 0.2 µM) : false
C=C1C(=O)O[C@@H](CCCCCCCC)[C@@H]1C(=O)O [C-75] + CS(=O)(=O)CCNCc1ccc(-c2ccc3ncnc(Nc4ccc(OCc5cccc(F)c5)c(Cl)c4)c3c2)o1 [Lapatinib] (partner 2 µM) : false
